- target.of.assay: trypsin (Bos taurus, UniProt P00760 P00760:24-246)
- Sequence (P00760 24-246, one chain of several): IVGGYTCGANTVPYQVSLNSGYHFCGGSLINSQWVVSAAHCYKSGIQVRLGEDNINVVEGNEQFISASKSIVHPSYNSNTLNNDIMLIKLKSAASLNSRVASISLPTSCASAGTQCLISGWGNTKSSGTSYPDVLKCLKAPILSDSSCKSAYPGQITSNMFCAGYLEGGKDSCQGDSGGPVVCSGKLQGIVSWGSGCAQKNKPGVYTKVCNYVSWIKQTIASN
- test.protocol: FP; 25 mM KCl, 200 mM NaCl, 25 mM Hepes pH 7.4, 25 C; iodophenylthiourea arm only
- experimental.parameters: tags: Sigma Aldrich, from bovine pancreas; label: fluorescein on 5'-terminal dT; intramolecular antiparallel G4
- Experimental: The preformed quadruplexes were then incubated with increasing concentrations of trypsin at 25° C. (25 mM KCl, 200 mM NaCl, 25 mM Hepes, pH 7.4) for 30 min. Preliminary fluorescence anisotropy studies were conducted to ascertain that equilibrium was reached after 30 min and that there was no significant quenching of the fluorescein emission. The anisotropy associated with the fluorescein emission was followed at 525 nm (excitation at 495 nm). […]
measurement.name: Kd
Units required after the number.

Measured Kd of TTGGTTGGTGTGGTTGGT (structured_DNA, 3'-iodophenylthiourea arm via C6 spacer, no 5' arm) [ODN 3 (Formula 5)] : 90 µM
